Hello, the source for this data is the supplement of paper PMC6757056, in case you need it.

B1: library; a variant is named by its letters at N, in order (parent)
chain: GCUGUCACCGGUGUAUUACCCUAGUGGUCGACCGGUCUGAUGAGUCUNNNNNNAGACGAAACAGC

variants of: B1; assay: normalized RNA/DNA level with ligand (relative to sTRSVctl = 100) (log10 (% of sTRSVctl)); ligand: hypoxanthine (xanthine aptamer); higher = less ribozyme self-cleavage, higher mRNA level; conditions: ligand concentration (+) RNA-Seq: 5 mM, HEK293T, reporter: mCherry (pCS4076), ligand present: yes
endpoint.label: normalized RNA/DNA level with ligand (log10)
Would you mind answering with just the numeric figure?

CACUGC    1.96
GCCCAG    1.81

Request: Consider the variant shown here: `GCCUCC` What is its recorded normalized RNA/DNA level with ligand (log10)?
Response: 1.95

Request: Query: normalized RNA/DNA level with ligand (log10); subject: `AUUUGG`
Response: 1.81

Request: # normalized RNA/DNA level with ligand (log10) lookup, item `CCAACG`
Response: 1.92

Request: Record request: normalized RNA/DNA level with ligand (log10) value, item `CUACGU`
Response: 1.98

Request: Which value of normalized RNA/DNA level with ligand (log10) has been reported for `GUGGCG` in the records?
Response: 1.94

Request: Find the recorded normalized RNA/DNA level with ligand (log10) belonging to `UCACUU` and report it.
Response: 1.93

Request: Recorded normalized RNA/DNA level with ligand (log10) of `GCGUUC` , please.
Response: 1.93

Request: Reported normalized RNA/DNA level with ligand (log10) for `GUGACA` : what is it?
Response: 1.9

Request: Item under review: `AUUGUG` . Reported normalized RNA/DNA level with ligand (log10)?
Response: 1.8

Request: Query: normalized RNA/DNA level with ligand (log10); subject: `UUGUCU`
Response: 1.99

Request: Which measured normalized RNA/DNA level with ligand (log10) value corresponds to `CAGGAG` ?
Response: 1.91

Request: Quick one: normalized RNA/DNA level with ligand (log10) for `GAGCGG` ?
Response: 1.64
